Tested on: K. pneumoniae
experiment.notes: MIC50/90 against small panels (n = 35)
Assay type: cell-based, Klebsiella pneumoniae
Parameters: key: A: a MIC value measurement that is the same as that observed for polymyxin B; a MIC value measured that is lower than the comparable value observed for polymxin B; a MIC value measured that is higher than the comparable value observed for polymyxin B
run.conditions: small panel n = 35, relative to polymyxin B
Where a SMILES comes first, the peptide text is derived from it. Bridges are numbered along the chain shown (N, C = ends). [ ]: non-standard residue; d: D form. The star is where a group is joined. ξ: configuration not given here. Octanoyl(6-Me) = CCC(C)CCCCC(=O)*; Thr(3ξ) = CC(O)[C@H](N)C(=O)O; Dab = NCC[C@H](N)C(=O)O; ξDab = NCCC(N)C(=O)O
measured.property: K. pneumoniae MIC50

compound | target.entity | measured.property | assay.value
CCC(C)CCCCC(=O)N[C@@H](CCN)C(=O)N[C@H](C(=O)N[C@@H](CCN)C(=O)NC1CCNC(=O)[C@H](C(C)O)NC(=O)[C@H](CCN)NC(=O)C(CCN)NC(=O)[C@H](CC(C)C)NC(=O)[C@@H](Cc2ccccc2)NC(=O)[C@H](CCN)NC1=O)C(C)O (stereo partly shown) [Polymyxin B] ({Octanoyl(6-Me)}-[Dab][Thr(3ξ)][Dab][ξDab][Dab][dF]L[ξDab][Dab][Thr(3ξ)]; lactam 4-C) | K. pneumoniae | K. pneumoniae MIC50 | A

---

System: K. pneumoniae 933
experiment.notes: MIC against the primary screening panel (broth microdilution)
Format: cell-based, Klebsiella pneumoniae
Design: key: A: a MIC value measurement that is the same as that observed for polymyxin B; a MIC value measured that is lower than the comparable value observed for polymxin B; a MIC value measured that is higher than the comparable value observed for polymyxin B
run.conditions: relative to polymyxin B
*1 amine or outer side, *2 acyl side, *3 side chain or, on linkers, in order; H or OH if unused. Where a SMILES comes first, the peptide text is derived from it. Bridges are numbered along the chain shown (N, C = ends). [ ]: non-standard residue; d: D form. The star is where a group is joined. ξ: configuration not given here. Octanoyl(6-Me) = CCC(C)CCCCC(=O)*; Thr(3ξ) = CC(O)[C@H](N)C(=O)O; NH(2-ClPh) = Clc1ccccc1N*; X1 = CC[C@H](C)CCCCC(=O)*; dDab = NCC[C@@H](N)C(=O)O; Dab = NCC[C@H](N)C(=O)O; CO = O=C([*:1])[*:2]; ξDab = NCCC(N)C(=O)O

compound | MIC K. pneumoniae 933
CC[C@H](C)CCCCC(=O)N[C@@H](CCN)C(=O)N[C@H](C(=O)N[C@H](CCN)C(=O)N[C@H]1CCNC(=O)[C@H]([C@@H](C)O)NC(=O)[C@H](CCN)NC(=O)[C@H](CCN)NC(=O)[C@H]([C@@H](C)O)NC(=O)[C@@H](CC(C)C)NC(=O)[C@H](CCN)NC1=O)[C@@H](C)O [Native Polymyxin A, Polymyxin A] (X1-[Dab]T[dDab][Dab][Dab][dL]T[Dab][Dab]T; lactam 4-C) | A
CC(C)C[C@@H]1NC(=O)[C@@H](Cc2ccccc2)NC(=O)[C@H](CCN)NC(=O)C(NC(=O)[C@H](CCN)NC(=O)[C@@H](NC(=O)[C@H](CCN)NC(=O)Nc2ccccc2Cl)C(C)O)CCNC(=O)[C@H](C(C)O)NC(=O)[C@H](CCN)NC(=O)C(CCN)NC1=O (stereo partly drawn) [Formula (II) comparator] ({NH(2-ClPh)-CO}-[Dab][Thr(3ξ)][Dab][ξDab][Dab][dF]L[ξDab][Dab][Thr(3ξ)]; lactam 4-C) | C
CCC(C)CCCCC(=O)N[C@@H](CCN)C(=O)N[C@H](C(=O)N[C@@H](CCN)C(=O)NC1CCNC(=O)[C@H](C(C)O)NC(=O)[C@H](CCN)NC(=O)C(CCN)NC(=O)[C@H](CC(C)C)NC(=O)[C@@H](Cc2ccccc2)NC(=O)[C@H](CCN)NC1=O)C(C)O (stereo partly drawn) [Polymyxin B] ({Octanoyl(6-Me)}-[Dab][Thr(3ξ)][Dab][ξDab][Dab][dF]L[ξDab][Dab][Thr(3ξ)]; lactam 4-C) | A
